Reported Plant response rating, Foxtail, Green values follow for various compounds
Test system: green foxtail
Protocol details: Test C postemergence
Assay type: in vivo, Setaria viridis
Test settings: 500 g ai/ha, postemergence, 10 days, 0 to 100 scale (0 no effect, 100 complete control)
Lab note: write the figure by itself, no unit.

// below: answered compounds
1) CCOC[C@H]1CN(C(=O)c2cc(-n3cnc(C(C)(C)C)n3)cc3c2OCO3)c2cccc(Cl)c2O1 [Compound 401]	20
2) CC(C)c1ncn(-c2cccc(C(=O)N3CC(C(F)(F)F)Oc4c(Cl)cccc43)c2)n1 (single isomer, unassigned) [Compound 289]	90
3) COC[C@H]1CN(C(=O)c2cc(-n3cnc(C(C)(C)C)n3)cc3c2OCCO3)c2cccc(Cl)c2O1 [Compound 382]	60

Documented Plant response rating, Foxtail, Green of CNc1ncn(-c2cccc(C(=O)N3C[C@H](C)Oc4c(C)cccc43)c2)n1 [Compound 337] : 40

* * *

Tested on: soybean
Protocol details: Test C preemergence
Type: in vivo, Glycine max
Test settings: Preemergence, 125 g ai/ha; 0 to 100 scale, 0 no effect, 100 complete control
Metric name: Plant response rating, Soybean
Lab note: write the figure by itself, no unit.

// below: answered molecules
1. Cc1ncn(-c2ccc(F)c(C(=S)N3C[C@H](C)Oc4c(C)cccc43)c2)n1 [Compound 362]	50
2. CCOC[C@H]1CN(C(=O)c2cc(-n3cnc(C(C)(C)C)n3)cc3c2OCCO3)c2cccc(Cl)c2O1 [Compound 388]	90
3. CC(C)c1ncn(-c2ccc(OS(C)(=O)=O)c(C(=O)N3C[C@H](C)Oc4c(Cl)cccc43)c2)n1 [Compound 338]	30

# context switch: different molecule, same Plant response rating, Soybean
Documented Plant response rating, Soybean of Cc1ncc(-c2cccc(C(=O)N3C[C@H](C)Oc4c(Cl)cccc43)c2)o1 [Compound 352] : 0

* * *

Reported Soybean plant response rating values follow for various compounds
System: soybean
Protocol details: Test C preemergence
Format: in vivo, Glycine max
Test settings: 500 g ai/ha, preemergence; 0 to 100 scale (0 no effect, 100 complete control)
Lab note: write the figure by itself, no unit.

// below: answered compounds
1. CCOCC1CN(C(=O)c2cc(-n3cnc(CC)n3)ccc2OC)c2cccc(Cl)c2O1 (stereo not shown)	90
2. CCOC[C@H]1CN(C(=O)c2cc(-n3cnc(C4CCC4)n3)cc3c2OCO3)c2cccc(Cl)c2O1	20
3. Cc1cccc2c1O[C@@H](C)CN2C(=O)c1cc(-n2cnc(C(C)C)n2)cc2c1CCO2	100

# context switch: different compound, same Soybean plant response rating
The reported soybean Soybean plant response rating of CC(C)c1ncn(-c2cc(C(=O)N3C[C@H](C)Oc4c(Cl)cccc43)cnn2)n1 is 90

* * *

System: wheat
Protocol details: Test C postemergence
Type: in vivo, Triticum aestivum
Test settings: 500 g ai/ha, postemergence, 10 days, 0 to 100 scale (0 no effect, 100 complete control)
Reported Plant response rating, Wheat values follow for various compounds
Lab note: write the figure by itself, no unit.

1) CCOCc1ncn(-c2ccc(C)c(C(=O)N3C[C@H](C)Oc4c(Cl)cccc43)c2)n1	40

Documented Plant response rating, Wheat of COC[C@H]1CN(C(=O)c2cc(-n3cnc(C(C)C)n3)ccc2C)c2cccc(Cl)c2O1 : 50

Documented Plant response rating, Wheat of Cc1ccc(-n2cnc(C(C)C)n2)cc1C(=O)N1CC(C(F)(F)F)Oc2c(Cl)cccc21 (stereo not shown) [Compound 354] : 60

Documented Plant response rating, Wheat of CC(C)c1ncn(-c2cc(C(=O)N3CC(C(F)(F)F)Oc4c(Cl)cccc43)ccn2)n1 (racemic) : 50

Documented Plant response rating, Wheat of COC[C@H]1CN(C(=O)c2cc(-n3cnc(C4CCC4)n3)cc3c2OCCO3)c2cccc(Cl)c2O1 : 20

Documented Plant response rating, Wheat of COc1ncn(-c2cccc(C(=O)N3C[C@H](C)Oc4c(Cl)cccc43)c2)n1 : 50

Documented Plant response rating, Wheat of Cc1cccc2c1OC(C(F)(F)F)CN2C(=O)c1cccc(-n2cnc(C(C)C)n2)c1 (racemic) : 50

Documented Plant response rating, Wheat of Cc1cccc2c1O[C@@H](C)CN2C(=O)c1cccc(-n2cnc(N)n2)c1 : 20

Documented Plant response rating, Wheat of CC(C)c1ncn(-c2cc(C(=O)N3C[C@H](C)Oc4c(Cl)cccc43)cnn2)n1 : 90

* * *

Test system: oat, wild
Protocol details: Test C postemergence
Format: in vivo, Avena fatua
Test settings: 125 g ai/ha, postemergence, 10 days; 0 to 100 scale, 0 no effect, 100 complete control
Metric name: Plant response rating, Oat, Wild
Lab note: write the figure by itself, no unit.

// below: answered molecules
1. CC(C)n1cnc(-c2cccc(C(=O)N3C[C@H](C)Oc4c(Cl)cccc43)c2)n1 [Compound 172]	0
2. COc1ccc(-n2cncn2)cc1C(=O)N1C[C@H](C)Oc2c(Cl)cccc21 [Compound 241]	60
3. CC(C)c1ncn(-c2cc(OC(F)F)c(OC(F)F)c(C(=O)N3C[C@H](C)Oc4c(Cl)cccc43)c2)n1 [Compound 150]	0

Documented Plant response rating, Oat, Wild of Cc1ccc(-n2cnc(C(C)C)n2)cc1C(=O)N1C[C@H](C)Oc2c1cccc2C(F)(F)F [Compound 170] : 20

Documented Plant response rating, Oat, Wild of CCc1ncn(-c2ccc(C)c(C(=O)N3CC(C(F)(F)F)Oc4c(Cl)cccc43)c2)n1 (racemic) [Compound 290] : 10

Documented Plant response rating, Oat, Wild of CCc1ncn(-c2ccc(OC)c(C(=S)N3C[C@H](C)Oc4c(C)cccc43)c2)n1 [Compound 271] : 80

Documented Plant response rating, Oat, Wild of CC(C)c1ncn(-c2cccc(C(=O)N3CC(C(F)(F)F)Oc4c(Cl)cccc43)c2)n1 (single isomer, unassigned) [Compound 288] : 0

* * *

Reported pest or weed control at 500 g/ha values follow for various molecules
Tested on: oat, wild
Protocol details: Test A postemergence
Format: in vivo, Avena fatua
Test settings: Avena fatua, post-emergence, 240 h, 500 g ai/ha, postemergence, 10 days, visual injury, 0 to 100 scale (0 no effect, 100 complete control); read-out: Plant response rating, Oat, Wild
Description: […]
The reply should contain only the number, in %.

1. C[C@H]1CN(C(=S)c2cccc(-n3cncn3)c2)c2cccc(Cl)c2O1	60
2. Cc1ccc(-n2cnc(C(C)C)n2)cc1C(=O)N1C[C@H](C)Oc2c(Cl)cccc21	80
3. Cc1ccc(-n2ncnc2C)cc1C(=O)N1C[C@H](C)Oc2c(Cl)cccc21 (single isomer, unassigned)	50

Documented pest or weed control at 500 g/ha of CC(C)c1ncn(-c2cc3c(c(C(=O)N4C[C@H](C)Oc5c(Cl)cccc54)c2)OCC3)n1 : 80

Documented pest or weed control at 500 g/ha of Cc1cccc2c1O[C@@H](C)CN2C(=O)c1cccc(-n2cn[nH]c2=O)c1 : 20

* * *

Test system: blackgrass
Protocol details: Test C preemergence
Assay type: in vivo, Alopecurus myosuroides
Test settings: Preemergence, 125 g ai/ha; 0 to 100 scale, 0 no effect, 100 complete control
From the text: […]
Metric name: Plant response rating, Blackgrass

// below: answered compounds
1. CCOC[C@H]1CN(C(=O)c2cc(-n3cnc(C(C)(C)C)n3)cc3c2OCO3)c2cccc(Cl)c2O1	30
2. CC(C)(C)c1ncn(-c2cc(C(=O)N3CC(C(F)(F)F)Oc4c(Cl)cccc43)ccn2)n1 (stereo not shown)	40
3. Cc1cccc2c1OC(C(F)(F)F)CN2C(=O)c1ccnc(-n2cnc(C(C)(C)C)n2)c1 (stereo not shown)	50

Documented Plant response rating, Blackgrass of CC(C)c1ncn(-c2cc(C(=O)N3CC(C(F)(F)F)Oc4c(Cl)cccc43)ccn2)n1 (racemic) [Compound 329] : 60

* * *

Tested on: blackgrass
Protocol details: Test C preemergence
Assay type: in vivo, Alopecurus myosuroides
Test settings: Preemergence, 1000 g ai/ha; visual rating after 10 days, 0 to 100 scale (0 no effect, 100 complete control)
Reported Plant response rating, Blackgrass values follow for various molecules
Lab note: write the figure by itself, no unit.

1) C[C@H]1CN(C(=O)c2cccc(-c3cnnn3C)c2)c2cccc(Cl)c2O1	30
2) C[C@H]1CN(C(=O)c2cccc(-n3cccc3)c2)c2cccc(Cl)c2O1	70
3) Cc1nccc(-c2cccc(C(=O)N3C[C@H](C)Oc4c(C)cccc43)c2)n1	30

# context switch: different molecule, same Plant response rating, Blackgrass
Documented Plant response rating, Blackgrass of Cc1cccc2c1O[C@@H](C)CN2C(=O)c1cccc(-n2cnc(Cl)c2)c1 : 70

* * *

Tested on: barnyardgrass
Protocol details: Test C postemergence
Format: in vivo, Echinochloa crusgalli
Test settings: Postemergence, 500 g ai/ha, 10 days, visual 0 to 100 scale (0 no effect, 100 complete control)
Reported Plant response rating, Barnyardgrass values follow for various compounds
Lab note: write the figure by itself, no unit.

// below: answered compounds
1. CC(C)c1ncn(-c2ccc([S+]([O-])C(F)(F)F)c(C(=O)N3C[C@H](C)Oc4c(Cl)cccc43)c2)n1 (stereo partly shown)	10
2. CC(C)c1ncn(-c2cc3c(c(C(=O)N4C[C@H](C)Oc5c(Cl)cccc54)c2)OCCO3)n1	80
3. COc1cc(C(=O)N2C[C@H](C)Oc3c(Cl)cccc32)cc(-n2cnc(C3CCC3)n2)c1	20

Documented Plant response rating, Barnyardgrass of Cc1cccc2c1O[C@@H](C)CN2C(=O)c1cccc(-n2cnc(C#N)c2)c1 : 20

Documented Plant response rating, Barnyardgrass of CCn1cnc(-c2cccc(C(=O)N3C[C@H](C)Oc4c(Cl)cccc43)c2)n1 : 10

Documented Plant response rating, Barnyardgrass of C[C@H]1CN(C(=O)c2cc(-n3cnc(C(C)(C)C)n3)cc3c2OCCO3)c2cccc(Cl)c2O1 : 50

Documented Plant response rating, Barnyardgrass of COc1cc(C(=O)N2C[C@H](C)Oc3c(Cl)cccc32)cc(-n2cnc(C3CC3)n2)c1 : 60
